target: Branched-chain-amino-acid aminotransferase, cytosolic (Homo sapiens, UniProt P54687); assay: Inhibition of human BCATc
Sequence (P54687 whole entry): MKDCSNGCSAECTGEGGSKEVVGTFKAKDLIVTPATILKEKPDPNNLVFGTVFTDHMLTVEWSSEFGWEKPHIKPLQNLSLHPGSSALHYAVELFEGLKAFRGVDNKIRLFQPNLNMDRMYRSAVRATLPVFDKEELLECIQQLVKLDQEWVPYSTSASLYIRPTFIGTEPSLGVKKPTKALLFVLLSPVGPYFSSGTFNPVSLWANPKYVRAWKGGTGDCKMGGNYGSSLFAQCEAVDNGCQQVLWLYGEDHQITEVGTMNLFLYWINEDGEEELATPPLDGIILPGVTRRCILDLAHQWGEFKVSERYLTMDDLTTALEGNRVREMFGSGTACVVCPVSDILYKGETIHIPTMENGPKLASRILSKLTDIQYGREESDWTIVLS
Endpoint: IC50 (µM)

Here's what some known entries look like.
> print(dat)
                                  structure                            assayed.system  endpoint  reported.value
1  Cc1ccccc1S(=O)(=O)NNC(=O)c1ccc2oc3ccccc3c2c1  Branched-chain-amino-acid aminotransferase, cytosolic (Homo sapiens, UniProt P54687)      IC50             3.2
2  O=C(NNS(=O)(=O)c1ccccc1Cl)c1cc2cc(Cl)ccc2o1  Branched-chain-amino-acid aminotransferase, cytosolic (Homo sapiens, UniProt P54687)      IC50             5.7

1. O=C(NNS(=O)(=O)c1ccccc1)c1cnc2ccccc2c1
2. O=C(NNS(=O)(=O)c1ccccc1)c1cc2cc(Cl)ccc2o1
3. Cc1cccc(S(=O)(=O)NNC(=O)c2cccc3c2oc2ccccc23)c1
Input line: Sort by IC50, descending. Provide your answer as the labels ordered per the instruction.
Output line: 1, 2, 3
